Measured CC50 of individual entries
Test system: HI-HeLa cells
experimental_details: Cytotoxicity in mock-infected HI-HeLa cells (XTT, antirhinoviral assay)
Assay type: cell-based
test_parameters: mock-infected HI-HeLa cells; line for HRV serotype 89; read-out: CC50

Previously resolved entries follow.
[[record]]
molecule = "CCOC(=O)/C=C/C(CCC(N)=O)NC(=O)C(CC(=O)C(NC(=O)SC1CCCC1)C(C)C)Cc1ccccc1 (stereo not shown)"
endpoint_value = "> 10 µM"

[[record]]
molecule = "CCOC(=O)/C=C/C(CCC(N)=O)NC(=O)C(CC(=O)C(NC(=O)SC1CCCC1)C(C)(C)C)Cc1ccccc1 (stereo not shown)"
endpoint_value = "> 32 µM"

[[record]]
molecule = "CCOC(=O)/C=C/C(CCC(N)=O)NC(=O)C(CC(=O)C(NC(=O)SC1CCCC1)C(C)C)Cc1ccc(C(F)(F)F)cc1 (stereo not shown)"
endpoint_value = "> 3 µM"


Query molecule follows.
**Q:** Request - read-out CC50 | tested on HI-HeLa cells | molecule CCOC(=O)/C=C/C(CCC(N)=O)NC(=O)C(CC(=O)C(NC(=O)OC1CCCC1)C(C)C)Cc1ccc(C)cc1 (stereo not shown)
**A:** > 3 µM
